Catalogue of combination Emax readings, one per entry.
test system: DoTc2-4510 (Cervical Carcinoma); experiment: combination Emax (second highest fraction inhibited in the dose matrix, 72 h); higher = more inhibition; extreme values may be limits of the assay
Answer using only a numeral; do not append any unit.

# annotated cases, reported combination Emax shown
# compound, combination Emax
records = [
    ("C=CCn1c(=O)c2cnc(Nc3ccc(N4CCN(C)CC4)cc3)nc2n1-c1cccc(C(C)(C)O)n1 [AZD1775] + Nc1ccn([C@@H]2O[C@H](CO)[C@@H](O)C2(F)F)c(=O)n1 [Gemcitabine] (first compound max 1 µM, partner max 0.3 µM)", 0.729),
    ("CN(C)CCCOc1ccc(-c2ccc3ncc4c(c3c2)n(C2CCOCC2)c(=O)n4C)cn1 [AZD0156] + C=CCn1c(=O)c2cnc(Nc3ccc(N4CCN(C)CC4)cc3)nc2n1-c1cccc(C(C)(C)O)n1 [AZD1775] (first compound max 1 µM, partner max 1 µM)", 0.473),
    ("CN(CCO)CC[C@H](CSc1ccccc1)Nc1ccc(S(=O)(=O)NC(=O)c2ccc(N3CCC([C@@H](O)c4ccccc4-c4ccc(Cl)cc4)CC3)cc2)cc1S(=O)(=O)C(F)(F)F [AZD4320] + C[C@@H]1COCCN1C2=NC(=NC(=C2)C3(CC3)[S@](=N)(=O)C)C4=C5C=CNC5=NC=C4 [AZD6738] (first compound max 1 µM, 7x7, partner max 10 µM)", 0.912),
    ("O=C(c1cc(Cc2n[nH]c(=O)c3ccccc23)ccc1F)N1CCN(C(=O)C2CC2)CC1 [Olaparib] + Cc1c2c(nn1C)CSCc1cc(n(C)n1)CSc1cc(c3ccccc3c1)OCCCc1c(C(=O)O)n(C)c3c-2c(Cl)ccc13 [AZD5991] (first compound max 10 µM, 7x7, partner max 1 µM)", 0.224),
    ("CN(CCO)CC[C@H](CSc1ccccc1)Nc1ccc(S(=O)(=O)NC(=O)c2ccc(N3CCC([C@@H](O)c4ccccc4-c4ccc(Cl)cc4)CC3)cc2)cc1S(=O)(=O)C(F)(F)F [AZD4320] + Cn1cnc2c(F)c(Nc3ccc(Br)cc3Cl)c(C(=O)NOCCO)cc21 [Selumetinib] (first compound max 1 µM, 7x7, partner max 3 µM)", 0.906),
    ("NC1(C(=O)N[C@@H](CCO)c2ccc(Cl)cc2)CCN(c2ncnc3[nH]ccc23)CC1 [Capivasertib] + CC(C)n1c(=O)n(C)c2cnc3cc(F)c(-c4ccc(OCCCN5CCCCC5)nc4)cc3c21 [AZD1390] (first compound max 10 µM, 7x7, partner max 0.3 µM)", 0.234),
]

## Task Return reported combination Emax; argument: COc1nnc2ccc(N3CCC(c4ccc(OCCN5CCN(C)C(=O)[C@H]5C)cc4)CC3)nn12 [AZD5153] + Cc1c2c(nn1C)CSCc1cc(n(C)n1)CSc1cc(c3ccccc3c1)OCCCc1c(C(=O)O)n(C)c3c-2c(Cl)ccc13 [AZD5991] (first compound max 1 µM, 7x7, partner max 1 µM)
## Result 0.362

## Task Return reported combination Emax; argument: COc1nnc2ccc(N3CCC(c4ccc(OCCN5CCN(C)C(=O)[C@H]5C)cc4)CC3)nn12 [AZD5153] + Cn1cnc2c(F)c(Nc3ccc(Br)cc3Cl)c(C(=O)NOCCO)cc21 [Selumetinib] (first compound max 1 µM, 7x7, partner max 10 µM)
## Result 0.427

## Task Return reported combination Emax; argument: Cc1cc2ncnn2cc1Nc1ncc2c(n1)n(C1CCOCC1)c(=O)n2C [AZD7648] + COc1cc([C@@H]2c3cc4c(cc3[C@@H](O[C@@H]3O[C@@H]5CO[C@@H](C)O[C@H]5[C@H](O)[C@H]3O)[C@H]3COC(=O)[C@H]23)OCO4)cc(OC)c1O [Etoposide] (first compound max 10 µM, 7x7, partner max 10 µM)
## Result 0.721

## Task Return reported combination Emax; argument: N#Cc1cnc(Nc2cc(NC[C@H]3CNCCO3)c(C(F)(F)F)cn2)cn1 [SRA737] + O=c1[nH]cc(F)c(=O)[nH]1 [5-Fluorouracil] (first compound max 10 µM, 7x7, partner max 20 µM)
## Result 0.231

## Task Return reported combination Emax; argument: Cc1cc2ncnn2cc1Nc1ncc2c(n1)n(C1CCOCC1)c(=O)n2C [AZD7648] + CN(C)CCCOc1ccc(-c2ccc3ncc4c(c3c2)n(C2CCOCC2)c(=O)n4C)cn1 [AZD0156] (first compound max 10 µM, 7x7, partner max 1 µM)
## Result 0.26

## Task Return reported combination Emax; argument: COc1cccc(OCCCN)c1-c1cc(Nc2cnc(C#N)cn2)n[nH]1 [Prexasertib] + C[C@@H]1COCCN1C2=NC(=NC(=C2)C3(CC3)[S@](=N)(=O)C)C4=C5C=CNC5=NC=C4 [AZD6738] (first compound max 1 µM, 7x7, partner max 10 µM)
## Result 0.88

## Task Return reported combination Emax; argument: Cc1c2c(nn1C)CSCc1cc(n(C)n1)CSc1cc(c3ccccc3c1)OCCCc1c(C(=O)O)n(C)c3c-2c(Cl)ccc13 [AZD5991] + Cc1cc2ncnn2cc1Nc1ncc2c(n1)n(C1CCOCC1)c(=O)n2C [AZD7648] (first compound max 1 µM, 7x7, partner max 10 µM)
## Result 0.244

## Task Return reported combination Emax; argument: Cc1c2c(nn1C)CSCc1cc(n(C)n1)CSc1cc(c3ccccc3c1)OCCCc1c(C(=O)O)n(C)c3c-2c(Cl)ccc13 [AZD5991] + CC(=O)O[C@H]1C(=O)[C@@]2(C)[C@H]([C@H](OC(=O)c3ccccc3)[C@]3(O)C[C@H](OC(=O)[C@H](O)[C@@H](NC(=O)c4ccccc4)c4ccccc4)C(C)=C1C3(C)C)[C@]1(OC(C)=O)CO[C@@H]1C[C@@H]2O [Paclitaxel] (first compound max 1 µM, 7x7, partner max 3 µM)
## Result 0.544

All values here come from the supplement of paper PMC11061612.
